Every entry's value here was drawn from patent US20120071496A1.

# protocol-details: logP (HCOOH)
# Format: physicochemical
# experimental-context: Table 2
observed-property: logP (HCOOH)
Answer with a bare number; do not write a unit.

Consider the worked cases shown below.
Data request: Entry CCc1ncccc1C(=O)Nc1c(NC2CC2)nc(C)nc1-c1ccccc1 [1-275] has what logP (HCOOH)?
Data returned: 0.76

Data request: I am curious: what logP (HCOOH) value has been reported for CCOc1ncccc1C(=O)Nc1c(NC2CC2)ncnc1-c1ccc(Cl)cc1 [1-158] ?
Data returned: 2.54

Data request: Could you share which logP (HCOOH) value was measured for COc1ncccc1C(=O)Nc1c(NC2CC2)ncnc1-c1ccc(C#N)cc1 [1-156] ?
Data returned: 1.59

Data request: GET /values?readout=logP (HCOOH)&item= Cc1nc(C(F)(F)F)ccc1C(=O)Nc1c(NC2CC2)ncnc1-c1ccc(Cl)cc1 [1-199]
Data returned: 2.35

---
Data request: What does the record list as logP (HCOOH) for Cc1nc(NC2CC2)c(NC(=O)c2ccccc2Cl)c(-c2ccc(C(F)(F)F)cc2)n1 [1-88] ?
Data returned: 1.93

* * *

# protocol-details: logP (HCOOH)
# Type: physicochemical
# experimental-context: HCOOH (formic acid); Table 4
observed-property: chromatographic logP
Give a plain numeric answer without units written out.

Data request: Request the reported chromatographic logP associated with CCc1ncccc1C(=O)Nc1c(Cl)ncnc1NC1CC1
Data returned: 0.79

* * *

# protocol-details: logP (HCOOH)
# Assay type: physicochemical
# experimental-context: Table 2
Let's look at some molecules and their measured logP (HCOOH).
// keep it numeric: no unit symbol after the value

Example entries and their recorded answers appear below.
Data request: What does the data say about its logP (HCOOH)? Entry: Cc1ccccc1C(=O)Nc1c(NC2CC2)ncnc1-c1ccc(C(F)(F)F)cc1 [1-81]
Data returned: 2.33

Data request: If you can, please state the reported logP (HCOOH) value of CCOc1ncccc1C(=O)Nc1c(NC2CC2)ncnc1-c1ccc(F)cc1 [1-159] .
Data returned: 1.84

Data request: Find the recorded logP (HCOOH) belonging to O=C(Nc1c(NC2CC2)ncnc1-c1ccc(OC(F)(F)F)cc1)c1ccccc1 [1-112] and report it.
Data returned: 2.12

Continuing:
Data request: Given Cc1ccccc1C(=O)Nc1c(NC2CC2)ncnc1-c1ccc(OC(F)(F)F)cc1 [1-72] , state its recorded logP (HCOOH).
Data returned: 2.35

Data request: Consider the molecule CCc1ncccc1C(=O)Nc1c(NC(C)(C)C)ncnc1-c1ccc(Cl)cc1 [1-135] and give its measured logP (HCOOH).
Data returned: 1.86

Data request: Which logP (HCOOH) is listed for CCc1ncccc1C(=O)Nc1c(NC2CC2)ncnc1-c1ccc(F)cc1C [1-180] ?
Data returned: 1.10

Data request: State the recorded logP (HCOOH) for this entry: Cc1ncccc1C(=O)Nc1c(NC2CC2)ncnc1-c1ccc(F)cc1 [1-1]
Data returned: 0.71

Data request: Requested read-out: logP (HCOOH). Entry: CCc1ncccc1C(=O)Nc1c(NC2CC2)nc(C)nc1-c1ccc(F)cc1F [1-278]
Data returned: 1

Data request: # get_value(readout='logP (HCOOH)', item= Cc1ncccc1C(=O)Nc1c(NC(C)C)ncnc1-c1ccc(OC(F)(F)F)cc1 [1-74] )
Data returned: 1.55

Data request: May I ask what logP (HCOOH) has been recorded for O=C(Nc1c(NC2CC2)ncnc1-c1ccc(F)cc1)c1cccnc1C(F)(F)F [1-170] ?
Data returned: 1.59

Data request: Return reported logP (HCOOH); argument: Cc1ncccc1C(=O)Nc1c(NC2CC2)ncnc1-c1ccc(C(F)(F)F)cc1 [1-83]
Data returned: 1.43

Data request: Entry under review: CCc1ncccc1C(=O)Nc1c(NC(C)C2CC2)ncnc1-c1ccc(Cl)cc1 (centres unmarked) [1-144] . Reported logP (HCOOH)?
Data returned: 1.62

Data request: State the recorded logP (HCOOH) for this entry: CCc1ncccc1C(=O)Nc1c(NC2CC2)ncnc1-c1ccc(C#N)cc1 [1-133]
Data returned: 1.10

Data request: Can you share its logP (HCOOH)? I mean this molecule: CCc1ncccc1C(=O)Nc1c(NC2CC2)ncnc1-c1ccccc1C [1-182]
Data returned: 0.94

* * *

# protocol-details: logP (HCOOH)
# Type: physicochemical
# experimental-context: table after Table 9
Here, each record is paired with measured IogP (HCOOH) data.
Write the value as a bare number.

Look over these answered cases.
Data request: Can you share its IogP (HCOOH)? I mean this compound: O=C(Nc1c(NC2CC2)ncnc1-c1ccc(Cl)cc1)c1ccnn1-c1ccccc1Cl
Data returned: 2.05

Data request: What value of IogP (HCOOH) has been recorded for this entry: O=C(Nc1c(NC2CC2)ncnc1-c1ccc(F)cc1)c1ccnn1-c1ccc(F)cc1
Data returned: 1.70

Data request: Value lookup for IogP (HCOOH); key = O=C(Nc1c(NC2CC2)ncnc1-c1ccc(F)cc1)c1ccnn1-c1ccc(Cl)cc1
Data returned: 2.02

More entries:
Data request: Fill in the blank: the reported IogP (HCOOH) of O=C(Nc1c(NC2CC2)ncnc1-c1ccc(F)cc1)c1ccnn1-c1ccccc1Cl is ____.
Data returned: 1.76

* * *

# protocol-details: logP (HCOOH)
# Assay type: physicochemical
# experimental-context: Table 4
The compounds listed here are annotated with their logP (HCOOH).
Output: the number by itself.

Please review the following examples before continuing.
Data request: Given CCc1ncccc1C(=O)Nc1c(CC)ncnc1NC1CC1 , state its recorded logP (HCOOH).
Data returned: 1.74

Data request: Query: logP (HCOOH); subject: CCc1ncccc1C(=O)Nc1c(Cl)ncnc1NC1CC1C (stereo not drawn)
Data returned: 1.26

Data request: I am curious: what logP (HCOOH) value has been reported for CCc1ncccc1C(=O)Nc1c(Br)ncnc1NC1CC1 ?
Data returned: 0.84

Data request: Entry under review: O=C(Nc1c(Cl)ncnc1NC1CC1)c1cccnc1OCC(F)(F)F . Reported logP (HCOOH)?
Data returned: 2.25

Data request: May I ask what logP (HCOOH) has been recorded for O=C(Nc1c(Cl)ncnc1NC1CC1)c1cccnc1CC(F)(F)F ?
Data returned: 1.61

---
Data request: So what's the measured logP (HCOOH) for this one? CCc1ncccc1C(=O)Nc1c(Cl)nc(C)nc1NC1CC1
Data returned: 1.41

* * *

# protocol-details: logP (HCOOH)
# Type: physicochemical
# experimental-context: HCOOH (formic acid); Table 2
The following compounds are shown together with reported chromatographic logP values.
Answer with a bare number; do not write a unit.

Data request: Returns the measured chromatographic logP for the input compound. Input: CCc1ncccc1C(=O)Nc1c(NC2CC2)ncnc1-c1ccc(Cl)cc1
Data returned: 1.31

Attention now turns to another entry.
Data request: # chromatographic logP lookup, item CCc1ncccc1C(=O)Nc1c(NC2CC2)ncnc1-c1ccc(Cl)cc1Cl
Data returned: 1.6

* * *

# protocol-details: logP (HCOOH)
# Format: physicochemical
# experimental-context: Table 2
Form field: logP (HCOOH) (one value per entry).
// return a plain number; no unit text

Study these solved cases before continuing.
Data request: Record request: logP (HCOOH) value, item Cc1ncccc1C(=O)Nc1c(NC2CC2)ncnc1-c1ccc(OS(=O)(=O)C(C)C)cc1
Data returned: 1.15

Data request: Request the reported logP (HCOOH) associated with CCc1ncccc1C(=O)Nc1c(NC2CC2)ncnc1-c1ccccc1
Data returned: 1.01

Data request: Would you mind telling me what logP (HCOOH) value was observed for O=C(Nc1c(NC2CC2)ncnc1-c1ccc(OC(F)(F)F)cc1)c1cccnc1Cl ?
Data returned: 1.99

Data request: Return reported logP (HCOOH); argument: CC(C)Oc1ncccc1C(=O)Nc1c(NC2CC2)ncnc1-c1ccc(OC(F)(F)F)cc1
Data returned: 2.32

Data request: Given the compound CCc1nccc(Cl)c1C(=O)Nc1c(NC2CC2)ncnc1-c1ccc(Cl)cc1 , what is its reported logP (HCOOH)?
Data returned: 2.54

Others:
Data request: Requested field: logP (HCOOH). Item: CCc1ncccc1C(=O)Nc1c(NC(C)C2CC2)ncnc1-c1ccc(OC(F)(F)F)cc1 (stereo not drawn)
Data returned: 2.18

Data request: // lookup logP (HCOOH) for CCc1nc(C(F)(F)F)ccc1C(=O)Nc1c(NC2CC2)ncnc1-c1ccc(F)cc1
Data returned: 2.43

Data request: I'd like to know its logP (HCOOH). The compound in question is O=C(Nc1c(NC2CC2)ncnc1-c1ccc(Cl)cc1)c1cccnc1C(F)(F)F
Data returned: 1.76

Data request: What does the record list as logP (HCOOH) for O=C(Nc1c(NC2CC2)ncnc1-c1ccc(Cn2cnc(C(F)(F)F)n2)cc1)c1cccnc1C1CC1 ?
Data returned: 1.45

Data request: Query (compound): CCc1ncccc1C(=O)Nc1c(NC2CC2)ncnc1-c1ccc(C#N)cc1C ; field requested: logP (HCOOH)
Data returned: 1.22

Data request: Record request: logP (HCOOH) value, item CCc1ncccc1C(=O)Nc1c(NC(C)(C)C2CC2)ncnc1-c1ccc(Cl)cc1
Data returned: 2.22

Data request: Give its logP (HCOOH) value. Item: CCc1ncccc1C(=O)Nc1c(NC2CC2)ncnc1-c1ccc(F)cc1Cl
Data returned: 0.79
